Give measured s/n ratio for each item. Keep answers brief.
target: T1, proprotein convertase subtilisin/kexin type 9 (PCSK9) (human, UniProt Q8NBP7 31-692); assay: phage spot ELISA
T1 construct: His-tagged full-length PCSK9 in TR-FRET and SPR, biotinylated in phage ELISA; secreted protein is autoprocessed (prodomain plus catalytic/CRD chain starting at S153); also called rec.PCSK9; His-PCSK9
T1 sequence (Q8NBP7 other isoform, or with tags, fused parts or gaps limits assumed): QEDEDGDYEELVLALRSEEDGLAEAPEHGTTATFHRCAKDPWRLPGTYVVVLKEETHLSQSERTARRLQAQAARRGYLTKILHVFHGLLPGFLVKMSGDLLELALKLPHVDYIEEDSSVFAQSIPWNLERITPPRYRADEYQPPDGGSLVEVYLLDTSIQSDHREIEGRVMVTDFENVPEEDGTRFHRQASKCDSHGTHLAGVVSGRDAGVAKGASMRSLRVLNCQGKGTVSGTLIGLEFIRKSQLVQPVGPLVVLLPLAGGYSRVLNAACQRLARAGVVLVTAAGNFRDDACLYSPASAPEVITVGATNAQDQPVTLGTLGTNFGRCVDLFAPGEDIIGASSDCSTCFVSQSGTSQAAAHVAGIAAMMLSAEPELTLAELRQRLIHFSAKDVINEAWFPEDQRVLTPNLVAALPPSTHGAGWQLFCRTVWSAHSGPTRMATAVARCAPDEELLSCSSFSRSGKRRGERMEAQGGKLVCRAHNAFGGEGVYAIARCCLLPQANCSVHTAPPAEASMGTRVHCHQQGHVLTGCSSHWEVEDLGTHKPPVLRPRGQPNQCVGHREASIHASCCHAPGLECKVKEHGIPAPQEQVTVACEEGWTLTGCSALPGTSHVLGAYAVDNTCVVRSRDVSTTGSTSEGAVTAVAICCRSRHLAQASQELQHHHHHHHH
Reply: number alone, nothing else.

Name the reported s/n ratio value associated with the binder TAFTSWEEYLDWVGSGGVLGVGGMWIA [SEQ ID NO 335]
12.8

Name the reported s/n ratio value associated with the binder TAFTSWEEYLDWVGSGCCSYGYEKCCNG [SEQ ID NO 349]
28.6

Name the reported s/n ratio value associated with the binder TAFTSWEEYLDWVGSGRCGLAWCVVLVDQ [SEQ ID NO 365]
20.8

Name the reported s/n ratio value associated with the binder TAFTSWEEYLDWVGSGRCESKGWANTCVSE [SEQ ID NO 362]
20.7

Name the reported s/n ratio value associated with the binder TAFTSWEEYLDWVGSGQCYPWCRL [SEQ ID NO 338]
25.1

Name the reported s/n ratio value associated with the binder TAFTSWEEYLDWVGSGRGGYELNIPR [SEQ ID NO 326]
29.8

Name the reported s/n ratio value associated with the binder TAFTSWEEYLDWVGSGRGEVYDKGGVIVHL [SEQ ID NO 343]
30.5
